Here, each record is paired with measured melting point data.

{"columns": ["molecule", "melting point"],
 "data": [
  ["COC(=O)NCc1cc(-c2cn(-c3c(F)cc(OC)cc3F)nn2)ccc1C [Compound 130]", "146 to 150 °C"],
  ["COC(=O)NCc1cc(-c2ccn(-c3c(F)cc(OC4CC4)cc3F)n2)ccc1C [Compound 66]", "124 to 128 °C"],
  ["COC(=O)NCc1cc(-c2cn(-c3c(F)cc(F)cc3Cl)nn2)ccc1C [Compound 122]", "125 to 129 °C"],
  ["COC(=O)NCc1cc(-c2cnn(-c3c(F)cc(Br)cc3F)n2)ccc1C [Compound 114]", "136 to 140 °C"],
  ["COC(=O)NCc1cc(-c2ccn(-c3c(F)cc(OC4CCC4)cc3F)n2)ccc1C [Compound 13]", "126 to 128 °C"],
  ["COC(=O)NCc1cc(-c2cnn(-c3c(F)cccc3F)n2)ccc1C [Compound 112]", "122 to 126 °C"],
  ["COC(=O)NCc1cc(-c2ccn(-c3c(F)cc(Cl)cc3F)n2)ccc1C [Compound 6]", "148 to 149 °C"],
  ["COC(=O)NCc1cc(-c2ncn(-c3c(F)cc(N)cc3F)n2)ccc1C [Compound 106]", "136 to 140 °C"],
  ["COC(=O)NCc1cc(-c2ccn(-c3c(F)cc(C)cc3F)n2)ccc1C [Compound 30]", "130 to 131 °C"],
  ["COC(=O)NCc1cc(-c2cn(-c3c(F)cc(N)cc3F)nn2)ccc1C [Compound 131]", "194 to 198 °C"]
]}

[ask] Please give measured melting point of the following entry: COC(=O)NCc1cc(-c2cn(-c3c(F)cc(Br)cc3F)nn2)ccc1C [Compound 126]
[reply] 160 to 164 °C

[ask] Quickly give me recorded melting point for COC(=O)NCc1cc(-c2cc(C)n(-c3c(Cl)cccc3Cl)n2)ccc1C [Compound 101]
[reply] 146 to 150 °C

[ask] Item COC(=O)NCc1cc(-c2ccn(-c3c(F)cccc3F)n2)ccc1C [Compound 4] : provide melting point
[reply] 142 to 143 °C

[ask] Tell me melting point reported for COC(=O)NCc1cc(-c2ccn(-c3c(F)cc(OC(F)F)cc3F)n2)ccc1C [Compound 15]
[reply] 102 to 103 °C

[ask] Return melting point (reported value) for this molecule: COC(=O)NCc1cc(-c2cc(C)n(-c3c(F)cc(OC)cc3F)n2)ccc1C [Compound 102]
[reply] 128 to 132 °C

====

# System: Puccinia recondita f. sp. tritici
# test: Test B: wheat leaf rust, spray on wheat seedlings, disease control rating
# Type: in vivo
# reported conditions: Puccinia recondita, 192 h; Rate 10 ppm; 100 = 100% disease control, 0 = no disease control relative to the controls
pest or weed control at 10 ppm: recorded values
The response must be a number in % with no trailing unit.

Consider the worked cases shown below.
{"columns": ["structure string", "readout units", "pest or weed control at 10 ppm"],
 "data": [
  ["COC(=O)NCc1cc(-c2ccn(-c3c(F)cc(Cl)cc3F)n2)ccc1C", "%", 98],
  ["COC(=O)NCc1cc(-c2ccn(-c3c(C)cc(Br)cc3C)n2)ccc1C", "%", 68],
  ["COC(=O)NCc1cc(-c2ccn(-c3c(F)cc(F)cc3SC)n2)ccc1C", "%", 0],
  ["COC(=O)NCc1cc(-c2cnn(-c3c(F)cc(C)cc3F)n2)ccc1C", "%", 99],
  ["COC(=O)NCc1cc(-c2ccn(-c3c(F)cc(SC)cc3SC)n2)ccc1C", "%", 0],
  ["COC(=O)NCc1cc(-c2cnn(-c3c(F)cc(CC(C)C)cc3F)n2)ccc1C", "%", 91],
  ["COC(=O)NCc1cc(-c2cn(-c3c(Cl)cc(OC)cc3OC)nn2)ccc1C", "%", 0],
  ["COC(=O)NCc1cc(-c2ccn(-c3c(F)cccc3I)n2)ccc1C", "%", 0],
  ["COC(=O)NCc1cc(-c2ccn(-c3c(F)cc(C=O)cc3F)n2)ccc1C", "%", 0],
  ["COC(=O)NCc1cc(-c2ccn(-c3c(F)cc(C)cc3F)n2)ccc1C", "%", 98]
]}

[ask] Tell me pest or weed control at 10 ppm reported for `COC(=O)NCc1cc(-c2cn(-c3c(C)cc(OC)cc3C)nn2)ccc1C`
[reply] 0

====

# System: Puccinia recondita f. sp. tritici
# test: Test B: wheat leaf rust, spray on wheat seedlings, disease control rating
# Type: in vivo
# reported conditions: Puccinia recondita, 192 h; Rate 10 ppm; 100 = 100% disease control, 0 = no disease control relative to the controls
# Description: General protocol for preparing test suspensions for Tests A-F: the test compounds were first dissolved in acetone in an amount equal to 3% of the final volume and then suspended at the desired concentration (in ppm) in acetone and purified water (50/50 mix by volume) containing 250 ppm of the surfactant PEG400 (polyhydric alcohol esters). The resulting test suspensions were then used in Tests A-F. The test solution was sprayed to the point of run-off on wheat seedlings. […]
experimental endpoint: pest or weed control at 10 ppm (%)
A number alone suffices; assume %.

{"columns": ["structure string", "readout units", "reading"],
 "data": [
  ["CCOc1cc(F)c(-n2ccc(-c3ccc(C)c(CNC(=O)OC)c3)n2)c(F)c1", "%", 100],
  ["COC(=O)NCc1cc(-c2cn(-c3c(F)cc(OC)cc3F)nn2)ccc1C", "%", 68],
  ["CNc1cc(F)c(-n2ccc(-c3ccc(C)c(CNC(=O)OC)c3)n2)c(F)c1", "%", 68],
  ["COC(=O)NCc1cc(-c2ccn(-c3c(F)cc(CF)cc3F)n2)ccc1C", "%", 100],
  ["COC(=O)NCc1cc(-c2cn(-c3c(F)cc(Br)cc3F)nn2)ccc1C", "%", 57]
]}

[ask] Note pest or weed control at 10 ppm for the molecule shown: `COC(=O)NCc1cc(-c2ccn(-c3c(F)cc(SC(F)F)cc3F)n2)ccc1C`
[reply] 100

[ask] Return pest or weed control at 10 ppm (reported value) for this molecule: `COC(=O)NCc1cc(-c2ccn(-c3c(F)cccc3Cl)n2)ccc1C`
[reply] 74

[ask] Look up and state reported pest or weed control at 10 ppm for `COC(=O)NCc1cc(-c2cnn(-c3c(F)cc(Cl)cc3F)n2)ccc1C`
[reply] 100

====

# Tested on: Puccinia recondita f. sp. tritici
# test: Test B: wheat leaf rust, spray on wheat seedlings, disease control rating
# Format: in vivo
# reported conditions: Puccinia recondita, 192 h; Rate 10 ppm; 100 = 100% disease control, 0 = no disease control relative to the controls
# Source text: General protocol for preparing test suspensions for Tests A-F: the test compounds were first dissolved in acetone in an amount equal to 3% of the final volume and then suspended at the desired concentration (in ppm) in acetone and purified water (50/50 mix by volume) containing 250 ppm of the surfactant PEG400 (polyhydric alcohol esters). The resulting test suspensions were then used in Tests A-F. The test solution was sprayed to the point of run-off on wheat seedlings. […]
experimental endpoint: pest or weed control at 10 ppm (%)
The answer is to be given in %; state only the numeric part.

{"columns": ["structure string", "pest or weed control at 10 ppm [%]"],
 "data": [
  ["COC(=O)NCc1cc(-c2cnn(-c3c(F)cc(C(F)(F)F)cc3F)n2)ccc1C", 99],
  ["COC(=O)NCc1cc(-c2cn(-c3c(Br)cc(OC)cc3Br)nn2)ccc1C", 0],
  ["COC(=O)NCc1cc(-c2ccn(-c3c(F)cc(Br)cc3F)n2)ccc1C", 100],
  ["COC(=O)NCc1cc(-c2ccn(-c3c(F)cc(C4OCCO4)cc3F)n2)ccc1C", 99],
  ["COC(=O)NCc1cc(-c2ccn(-c3c(F)cc(OC(F)(F)F)cc3F)n2)ccc1C", 100],
  ["COC(=O)NCc1cc(-c2ccn(-c3c(F)cc(C(C)C)cc3F)n2)ccc1C", 100],
  ["COC(=O)NCc1cc(-c2ccn(-c3c(F)cc(C#N)cc3F)n2)ccc1C", 68],
  ["COC(=O)NCc1cc(-c2cn(-c3c(F)cc(I)cc3F)nn2)ccc1C", 68],
  ["CON=C(C)c1cc(F)c(-n2ccc(-c3ccc(C)c(CNC(=O)OC)c3)n2)c(F)c1", 100],
  ["COC(=O)NCc1cc(-c2cnn(-c3c(F)cc(I)cc3F)n2)ccc1C", 100]
]}

[ask] Read off the recorded pest or weed control at 10 ppm for `COC(=O)NCc1cc(-c2ccn(-c3c(F)cc(N)cc3F)n2)ccc1C`
[reply] 0

[ask] Please give the documented pest or weed control at 10 ppm of `COC(=O)NCc1cc(-c2ccn(-c3c(SC)cc(F)cc3SC)n2)ccc1C`
[reply] 0

[ask] # return recorded pest or weed control at 10 ppm for entry `COC(=O)NCc1cc(-c2ccn(-c3c(Cl)cc(N)cc3Cl)n2)ccc1C`
[reply] 0

[ask] Entry `COC(=O)NCc1cc(-c2ccn(-c3c(F)cc(OC4CC4)cc3F)n2)ccc1C` needs its pest or weed control at 10 ppm filled in; supply it.
[reply] 100

[ask] For the molecule `COC(=O)NCc1cc(-c2ccn(-c3c(Cl)cccc3I)n2)ccc1C` , give its reported pest or weed control at 10 ppm.
[reply] 45

[ask] Quote pest or weed control at 10 ppm reported for `COC(=O)NCc1cc(-c2ccn(-c3c(Cl)cc(Br)cc3Cl)n2)ccc1C` please.
[reply] 80

[ask] Quote pest or weed control at 10 ppm reported for `COC(=O)NCc1cc(-c2cnn(-c3c(F)cc(Br)cc3F)n2)ccc1C` please.
[reply] 100

Numbers sourced from patent US11634393B2.
